Where do the numbers come from? From PubChem BioAssay (NCATS).

- Test system: CP262
- assay-notes: qHTS profiling for inhibitors of Plasmodium falciparum proliferation (AID 504749); note: nearly all actives have a fitted effect of over 60% in size
- condition-set: P. falciparum in erythrocytes, SYBR Green DNA, 72 h; series mostly up to 28.7 µM
Inconclusive results are not listed. Activity calls are given as the source filed them. Calls come from the whole dose curve; as a rule, active = well fitted inhibition curve with a large enough effect; inconclusive = small, poorly fitted or top-dose-only effect; inactive = flat fitted curve, though single readings scatter. Bridge positions count the residues as written; N and C are the ends. Square brackets hold non-standard residues; d marks the D form. Peptide text beside a SMILES is read from it. * marks the point of attachment. Octanoyl(6-Me) = CCC(C)CCCCC(=O)*; Dab = NCC[CH](N)C(=O)O
Respond using exactly one of the listed classes: active, inactive

Exercise: Could you kindly confirm the outcome this assay logged for CCC(=O)O[C@@H](OP(=O)(CCCCc1ccccc1)CC(=O)N1C[C@H](C2CCCCC2)C[C@H]1C(=O)O)C(C)C (some centres not stated) ?
Key: inactive

Exercise: Could you kindly confirm the outcome this assay logged for CN(C)CCCCCCN(C)C ?
Key: inactive

Exercise: Could you kindly confirm the outcome this assay logged for CC(=O)O[C@@]12CO[C@@H]1C[C@H](O)[C@@]1(C)C(=O)[C@H](O)C3=C(C)[C@@H](OC(=O)C(O)[C@@H](NC(=O)OC(C)(C)C)c4ccccc4)C[C@@](O)([C@@H](OC(=O)c4ccccc4)[C@H]21)C3(C)C (some centres not stated) ?
Key: active

Exercise: Could you kindly confirm the outcome this assay logged for CCC(C)CCCCC(=O)NC(CCN)C(=O)NC(C(=O)NC(CCN)C(=O)NC1CCNC(=O)C(C(C)O)NC(=O)C(CCN)NC(=O)C(CCN)NC(=O)C(CC(C)C)NC(=O)C(Cc2ccccc2)NC(=O)C(CCN)NC1=O)C(C)O (configuration not stated) ({Octanoyl(6-Me)}-[Dab]T[Dab][Dab][Dab]FL[Dab][Dab]T; lactam 4-C; configuration not given here) ?
Key: inactive

Exercise: Could you kindly confirm the outcome this assay logged for Nc1nc(Cl)nc2c1ncn2C1CC(O)C(CO)O1 (configuration not stated) ?
Key: inactive

Exercise: Could you kindly confirm the outcome this assay logged for NC1=NC(S)C2N=CN=C2N1 (configuration not stated) ?
Key: inactive

Exercise: Could you kindly confirm the outcome this assay logged for S=C1NC=NC2N=CNC12 (configuration not stated) ?
Key: inactive
